FYI, the data here is from ChEMBL document CHEMBL1133809.

Entries and their measured pIC50 follow.
biological target: UniProtKB P19643; assay: In vitro ability to inhibit Monoamine oxidase B activity in rat whole brain in vitro
Sequence (P19643 whole entry): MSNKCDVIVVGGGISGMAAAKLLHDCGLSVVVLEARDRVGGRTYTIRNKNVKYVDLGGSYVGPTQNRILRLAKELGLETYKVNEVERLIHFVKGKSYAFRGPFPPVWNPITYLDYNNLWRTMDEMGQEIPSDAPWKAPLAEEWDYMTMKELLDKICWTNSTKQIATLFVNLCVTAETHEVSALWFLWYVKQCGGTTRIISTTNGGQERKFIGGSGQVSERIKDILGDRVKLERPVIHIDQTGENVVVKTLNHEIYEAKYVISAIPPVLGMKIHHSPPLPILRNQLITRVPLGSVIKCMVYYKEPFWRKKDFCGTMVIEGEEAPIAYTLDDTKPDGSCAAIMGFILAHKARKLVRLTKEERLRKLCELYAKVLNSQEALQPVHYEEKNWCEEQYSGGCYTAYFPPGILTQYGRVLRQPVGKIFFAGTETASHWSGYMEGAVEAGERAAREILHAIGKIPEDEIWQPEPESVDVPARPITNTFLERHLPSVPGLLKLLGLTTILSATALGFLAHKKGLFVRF
pIC50: −log10 of the molar value.
measured_attribute: pIC50

> print(dat)
                      smi  assay.value
1        C#CCN(N)c1ccccc1         6.00
2            NNCCc1ccccc1         7.12
3  C#CCN(N)C/C=C/c1ccccc1         5.45
4       C#CCN(N)Cc1ccccc1         6.92
5         C#CCNNCc1ccccc1         5.55
6        C#CCNNCCc1ccccc1         5.50
7      C#CCN(N)CCc1ccccc1         7.12
8    C#CCNNC/C=C/c1ccccc1         4.99

----------
Biological target: Amine oxidase [flavin-containing] A (Rattus norvegicus)
Sequence (P21396 whole entry): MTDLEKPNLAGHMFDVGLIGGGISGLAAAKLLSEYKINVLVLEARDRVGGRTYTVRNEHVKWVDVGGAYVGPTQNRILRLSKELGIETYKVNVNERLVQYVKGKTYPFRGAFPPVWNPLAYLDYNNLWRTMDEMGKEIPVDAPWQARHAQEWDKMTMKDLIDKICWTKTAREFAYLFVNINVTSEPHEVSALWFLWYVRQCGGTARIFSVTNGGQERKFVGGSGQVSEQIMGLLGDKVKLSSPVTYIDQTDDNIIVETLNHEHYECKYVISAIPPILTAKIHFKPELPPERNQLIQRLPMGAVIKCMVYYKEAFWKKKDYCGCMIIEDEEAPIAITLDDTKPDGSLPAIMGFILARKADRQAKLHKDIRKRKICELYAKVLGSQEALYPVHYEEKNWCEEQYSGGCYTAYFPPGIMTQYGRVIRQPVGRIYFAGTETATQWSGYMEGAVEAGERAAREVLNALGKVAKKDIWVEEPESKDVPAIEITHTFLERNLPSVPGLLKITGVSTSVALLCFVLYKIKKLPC
Test: In vitro ability to inhibit Monoamine oxidase A activity in rat whole brain in vitro
Recorded IC50, one value per entry.
measured_attribute: IC50 (µM)

> print(dat)
                    molecule  measured.attribute  assay.value
1       C#CCNNC/C=C/c1ccccc1                IC50          7.9
2          C#CCN(N)Cc1ccccc1                IC50         1.56
3           C#CCN(N)c1ccccc1                IC50         11.3
4     C#CCN(N)C/C=C/c1ccccc1                IC50         1.17
5  NNCCc1ccccc1 [PHENELZINE]                IC50         0.03
6            C#CCNNCc1ccccc1                IC50        0.362
7         C#CCN(N)CCc1ccccc1                IC50         2.04
8           C#CCNNCCc1ccccc1                IC50         1.85
